- Assayed Target: UniProt O14786
- Sequence (O14786 whole entry, looked up): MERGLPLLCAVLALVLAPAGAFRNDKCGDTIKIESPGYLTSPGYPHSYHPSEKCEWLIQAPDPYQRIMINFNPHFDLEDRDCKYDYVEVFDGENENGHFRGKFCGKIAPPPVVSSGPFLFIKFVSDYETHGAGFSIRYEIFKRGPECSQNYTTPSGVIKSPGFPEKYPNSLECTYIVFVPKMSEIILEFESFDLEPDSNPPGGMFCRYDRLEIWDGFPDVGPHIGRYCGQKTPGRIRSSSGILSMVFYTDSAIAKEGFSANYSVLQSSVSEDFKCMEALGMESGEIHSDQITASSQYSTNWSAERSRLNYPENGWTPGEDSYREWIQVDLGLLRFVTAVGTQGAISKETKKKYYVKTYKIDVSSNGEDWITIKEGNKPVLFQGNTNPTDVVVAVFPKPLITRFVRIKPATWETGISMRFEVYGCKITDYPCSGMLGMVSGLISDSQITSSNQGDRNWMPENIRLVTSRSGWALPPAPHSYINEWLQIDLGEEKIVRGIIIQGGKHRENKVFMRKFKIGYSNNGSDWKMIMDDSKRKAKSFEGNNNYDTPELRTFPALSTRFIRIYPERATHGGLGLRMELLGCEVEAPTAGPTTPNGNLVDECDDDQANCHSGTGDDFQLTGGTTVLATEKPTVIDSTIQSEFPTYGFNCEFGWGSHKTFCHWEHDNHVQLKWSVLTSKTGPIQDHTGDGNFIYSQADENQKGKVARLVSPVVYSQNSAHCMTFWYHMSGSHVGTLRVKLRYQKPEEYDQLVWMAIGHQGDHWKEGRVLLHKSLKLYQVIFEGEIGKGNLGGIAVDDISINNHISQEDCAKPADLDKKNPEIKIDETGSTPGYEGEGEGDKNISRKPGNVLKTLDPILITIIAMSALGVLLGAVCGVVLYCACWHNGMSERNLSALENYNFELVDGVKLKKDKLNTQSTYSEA
- Assay Method Text: NRP-1 b1b2 CendR peptide binding inhibitors, dose response, biochemical, FP and AlphaScreen panel (AID 651650)
- Experimental Conditions: NRP-1 b1b2 / RPARPAR peptide binding, FP or AlphaScreen; FP, mean of runs
The source made the active and inactive calls.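 Rule for the calls: active = mean IC50 below 20 µM in each of the two panels, so potent in both; inactive = the rest.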
Each entry below carries its recorded IC50.

O=C(Cc1ccccc1Cl)N1CCOCC1	> 95 µM (inactive)

// map `Cc1cc(N/C(=N/S(=O)(=O)c2cc(F)ccc2F)c2ccccc2)n(-c2ccccc2)n1` to recorded IC50 (system: UniProt O14786)
> 95 µM (inactive)

Lab note: need IC50 with UniProt O14786 for entry NC(=O)C1CCCN(C(=O)c2ccc3nc(Cc4cccc(Cl)c4)oc3c2)C1 (configuration not stated) , please look it up.
> 95 µM (inactive)

Query IC50 on UniProt O14786 for `Cc1ccccc1NC(=O)c1cccc(NC(=O)CCC(=O)O)c1`
> 95 µM (inactive)

UniProt O14786 / IC50 / C=CCOc1ccc(C2/C(=C(\O)c3c(C)[nH]c(C(=O)OC)c3C)C(=O)C(=O)N2CCN(C)C)cc1 (configuration not stated) : value?
> 95 µM (inactive)

Give IC50 (UniProt O14786) of the following molecule: Cn1c(=O)c2c(ncn2CC(COCc2ccccc2)OCc2ccccc2)n(C)c1=O (configuration not stated)
> 95 µM (inactive)

Look up IC50 with UniProt O14786 for this molecule: `O=C(COC(=O)c1ccccn1)c1ccc([N+](=O)[O-])cc1`
> 95 µM (inactive)

Provide value of IC50 for this record tested with UniProt O14786: `c1ccc(OCCCN2CCCC2)cc1`
> 95 µM (inactive)

What measured IC50 is associated with `COc1ccc(-c2[nH]ncc2CN(C)CCc2c(C)n[nH]c2C)c(F)c1` on UniProt O14786?
> 95 µM (inactive)

Field: IC50 (UniProt O14786). Entry: COc1cccc(-c2ccc3c(c2)N(Cc2ccccc2OC)C(=O)C(C)S3)c1 (configuration not stated)
> 95 µM (inactive)

Request: IC50, test system UniProt O14786, entry COC(=O)C1=C(C)NC(C)=C(C(=O)OC)C1C(=O)OC(C)C(=O)c1ccccc1 (configuration not stated)
> 95 µM (inactive)

State its IC50 on UniProt O14786: `COc1cc2oc(=O)ccc2cc1[C@@H](O)[C@@H]1OC(C)(C)OC1(C)C`
> 95 µM (inactive)

Observed IC50 on UniProt O14786 for `CCCCN(c1ccccc1)S(=O)(=O)c1ccc2c(c1)CCN2C(=O)CCC(=O)O` , please.
> 95 µM (inactive)

###

- Assayed Target: Neuropilin-1 (Homo sapiens)
- Assay Method Text: NRP-1 b1b2 CendR peptide binding inhibitors, dose response, biochemical, FP and AlphaScreen panel (AID 651650)
- Experimental Conditions: NRP-1 b1b2 / RPARPAR peptide binding, FP or AlphaScreen; AlphaScreen, mean of runs
The source made the active and inactive calls.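 How the source made its calls: active means mean IC50 below 20 µM in each of the two panels, so potent in both; inactive means the rest.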
Hello, when you answer, please use one of the following outcomes: active, inactive

Record excerpt, results attached:
CC(=O)OC[C@@H]1CN(Cc2cccc(C(F)(F)F)c2)C[C@H](n2cnc3c(NCc4ccco4)ncnc32)O1	inactive
CCOC(=O)N1CCN(C(=O)Nc2ccc3nc(C)c(C)nc3c2)CC1	inactive
CC(Nc1ccc2ccccc2c1)C(=O)N/N=C/c1ccncc1 (configuration not stated)	inactive
OCC1OC(n2cnc3c(/C=C(\O)c4ccccc4)ncnc32)C(O)C1O (configuration not stated)	inactive
O=c1c2cn[nH]c2nc(SCc2ccccc2F)n1-c1ccc(Br)cc1	inactive
COc1ccc(C(C(=O)NC(C)(C)C)N(C(=O)CCC(=O)Nc2cc(C)on2)c2c(C)cccc2C)cc1 (configuration not stated)	inactive

For `Cc1cc(C)n2c(SCC(=O)Nc3cccc(S(N)(=O)=O)c3)nnc2n1` , which call appears in the assay record?
inactive

Could you please tell me the result logged for `CCOc1ccc(-n2c(Cc3cc(=O)[nH]c(=O)[nH]3)nnc2SC(C)C)cc1` in this assay?
inactive

What call does the record list for `O=C(NCc1ccccc1)c1cccc(S(=O)(=O)N2CCCCC2)c1` ?
inactive

Write down the call the test reported for this compound. Item: `CCOC(=O)C[C@H]1c2cc(C(F)(F)F)ccc2S(=O)(=O)N1Cc1ccccc1`
inactive

Returns: the outcome recorded for O=C(NCCCN1CCCC(O)C1)c1cc(COc2ccc(F)cc2F)on1 (configuration not stated) in this assay.
inactive

Please state the recorded outcome for this compound: `C=C1CCN([C@@H](CC(C)C)C(=O)NCc2ccccc2)S(=O)(=O)c2ccccc21`
inactive
